experiment.description: yeast display, Sf9 membrane polyspecificity reagent, FACS + sequencing; frameworks hold sequencing errors
observed.property: polyreactivity (PSR sort gate)

>>> value_reported("QVQLVESGGGLVQAGGSLRLSCAASGRTLGRYAMGWYRQAPGKERELVAAINVGGGTTHYADSVKGRFTISRDNAKNTVYLQMNSLKPEDTAVYYCAASYRDGHIRHDYWGQGTQVTVSS")
"low polyreactivity"
>>> value_reported("QVQLVESGGGLVQAGGSLRLSCAASGIYGFYAMGWYRQPPRKQRELVAAISSVTSTYYADSVKGRFTISRDNAKNTVYLQMNSLKPEDTAVYYCNAYLYSGGLSYDYWGQGTQVTVSS")
"low polyreactivity"
>>> value_reported("QVQLVESGGGLVQEGGSLRLSCAASGSTFPLYTMGWYRQAPGKERELVATISRGGSTYYADSVKGRFTISRDNAKNTVYLQMNSLKPEDTAVYYCAARPFGFKFDYWGQGTQVTVSA")
"low polyreactivity"
>>> value_reported("QVQLVESGGGLVQAGGSLRLSGAASGITIKRYAMGWYRQAPGKEREFVATISQSGTSTYYADSVKGRFTISRDNAQNTVYLQMNSLKPEDTAVYYCAADYIGYWYGYYSWGQGTQVTVSS")
"low polyreactivity"

---

experiment.description: yeast display, Sf9 membrane polyspecificity reagent, FACS + sequencing; frameworks hold sequencing errors
observed.property: polyreactivity (PSR sort gate)

A selection of reference data follows.
>>> value_reported("QVQLVESGVGLVQAGGSLRLSCAASGFIFPTYAMGWYRQAPGKEREFVASITRRGGSTYYADSVKGRFTISRDNAKNSVYLQMNSLKPEDTAVYYCAAGYYGFRGGGSDYWGQGTQVTVSS")
"high polyreactivity"
>>> value_reported("QVQLVESGGGLVQAGGSLRLSCAASRLTFQQYAMGWYRQAPGKERELVAAITSDGASTNYADSVKGRFTISRDYAKNTVYLQMNSLKPEDTAVYYCAARRRSRQYRYDYWGQGTQVTVSS")
"high polyreactivity"
>>> value_reported("QVQLVESGGGLVQAGGSLRLSCAASGFTLDVNAIGWYRQAPGKERELVATISWGGASTYYADSVKGRFTISRDNAKNTVYLQMNSLKPEDTAVYYFAAQYYYPDDKGGYDYWGQGTQVTVSS")
"low polyreactivity"
>>> value_reported("QVQLVESGGALVQAGGSLRLSCAASGFTFRSYVMGWYRQAPGKERELVAAISGSGASTYYADSVKGRFTLSRDNAKNTVYLQMNSLKPEDTAVYYCAATSPYKYWYRYNYWGHGTQVTVSS")
"high polyreactivity"
>>> value_reported("QVQLVESGGGLVQAGGSLRLSCAASGRIFYFYPMGWYRQAPGKERELVAAISTSGGSTYYADSVKGRFTISRDNAKNTVYLQMNSLKPEDTAVYYCAARFRYYVSEYDYWGQGTQVTVSS")
"low polyreactivity"

Exam item: # get_value(readout='polyreactivity (PSR sort gate)', item= `QVQLVESGGGLVQAGGSLRLSCAASGLIFSPYAMGWYRQAPGKVREFVAAITSRGGTYYADSVKGRFTISRDNAKNTVYLQMNSLKPEDTAVYYCAARNNRYPLYNYWGQGTQVTVSS` )
Marked response: low polyreactivity

Exam item: # get_value(readout='polyreactivity (PSR sort gate)', item= `QVQLVESGLGLVKAGGSLRLSCAASGNTFDHYVMVWSRQAPGKEPELVASITSGGSTNYADSVKGRFTISRDNAKNTVYLQMNSLKPEDTAVYYCAVSLSYWYEAFTTRIDYYYWGQGTQVTLSS` )
Marked response: high polyreactivity

Exam item: # get_value(readout='polyreactivity (PSR sort gate)', item= `QDQLVESGGGLVQAGGSLRLSCAASGITFRWYAMGWYRQAPGKERELVAAITSVDSTDYADSVKGRFTISRDNAKNTVYLQMNSLKPEDTAVYYCAARIGTGVLPGRGANSHMDYWGQGTQVTVSS` )
Marked response: low polyreactivity

Exam item: # get_value(readout='polyreactivity (PSR sort gate)', item= `QVQLVESGGGLVQAGGSLRLSCAASGFTFVRNTMGWYRQATGKERELVAAISRSGGSTYYADSVKGRFTISRDNAKNTVYFKIYSLKPEDSAVYYCNAYRYVHYDWGHGTQVTVSS` )
Marked response: high polyreactivity

Exam item: # get_value(readout='polyreactivity (PSR sort gate)', item= `QVQLVESGGGLVQAGGSLRLSCAASGRILKRYAMGWYRQAPGKERELVAAINWSGGSTYYADSVKGRFTISRDNAKNTVYLQMTSLKPEDTAVYYCAADSWPFGYYYWGQGTQVTVSS` )
Marked response: high polyreactivity
